// reported pKa per item
- Reported conditions: basic group
Would you mind answering with just the numeric figure?

Look over these answered cases.
[
  {
    "Smiles notation": "Cc1cc(C)nc([S-])n1",
    "pKa": 8.5
  },
  {
    "Smiles notation": "O=C(N[C@@H]1C[C@H]2CC[C@@H](C1)N2Cc1ccccc1)c1cccc2c1OCCO2",
    "pKa": 8.68
  },
  {
    "Smiles notation": "NCCCCCCC#CC#CCCC(=O)[O-]",
    "pKa": 10.7
  }
]

Query string: Answer with the recorded pKa for the molecule listed here: c1cncc(-c2ccco2)c1
Result string: 4.62

Query string: Answer with the recorded pKa for the molecule listed here: CCN(C)N
Result string: 7.3

Query string: Answer with the recorded pKa for the molecule listed here: CCc1cnnc(C)c1
Result string: 4.17

Query string: Answer with the recorded pKa for the molecule listed here: Nc1cccc2nnccc12
Result string: 2.7

Query string: Answer with the recorded pKa for the molecule listed here: CCNN(C)C
Result string: 6.58

Query string: Answer with the recorded pKa for the molecule listed here: Oc1ccc2[nH]cnc2c1
Result string: 5.69

Query string: Answer with the recorded pKa for the molecule listed here: N/C(CCNc1ccccc1)=N\O
Result string: 5.35
